Hey, just so you know, these numbers are from paper PMC12136788.

# experimental.target: T1, UNK ZnF1-3 (human, UniProt Q9C0B0 31-174)
# T1 sequence: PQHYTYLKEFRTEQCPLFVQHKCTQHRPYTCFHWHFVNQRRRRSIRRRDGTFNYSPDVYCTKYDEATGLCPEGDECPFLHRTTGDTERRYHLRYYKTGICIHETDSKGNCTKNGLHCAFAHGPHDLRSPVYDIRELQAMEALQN
# assay.comment: nsRBNS (natural sequence RNA bind-n-seq); RBNS binding buffer (assumed for nsRBNS): 25 mM Tris pH 7.5, 150 mM KCl, 3 mM MgCl2, 0.01% Triton X-100, 500 ug/ml BSA, 20 U/ml SUPERase-In, 4 C; UNK is unkempt and MSI1 is Musashi-1; names of the RNAs are library labels; protein concentration not given here; high values mean tight binding
Over roughly 24,000 sequences, “enrichment r” has its median near 0.99; the highest 2% begin near 3.7. Only a selection was taken, and the highest values are over-represented in it overall.
parameter: binding signal (enrichment R)
The reply should be a number in enrichment R, with the unit left off.

# annotated cases, reported binding signal shown
1. chr6:86474593:86474594:-_ENSMUSG00000051695_ENSMUST00000053015|mus_hu|FALSE|FALSE (ssRNA) RNA: GGGAGUUCUACAGUCCGACGAUCACAUUUCUUAUCGACAAACAGAAAUAAAAUUCAUGAGCCAAAAAACCCAAAACAAAACUAAAAACAGGGAAAAGCUUAUAAAACUAAAUAUGGAUCCCAGCAUUAACAGCUGAACAGAGACAACAGAGGAUUGAGCAUCA ... 5.48
2. chr16:45382771:45382772:-_ENSMUSG00000022661_ENSMUST00000163230|mus_mus|mus_mus_mus_hu_True|8_8 (ssRNA) RNA: GGGAGUUCUACAGUCCGACGAUCCUGGGUCAUGUUAUAAGACAAAUGGACAGGGAGGGCAUGCUUCUCAAAAAAUGUGAGCUAUUGUCUAAGACUAACAAUAUUUAUCUAGCUAUAAAAAUAAGUUUUAAAUGGACGUUAAGACAACAGAGGAUUGAGCAUCA ... 3.98
3. chr16:45382771:45382772:-_ENSMUSG00000022661_ENSMUST00000163230|mus_mus|mus_mus_mus_hu_True|8_108 (ssRNA) RNA: GGGAGUUCUACAGUCCGACGAUCCUGAGUGUUAUUGUAAGACAAAUGGACAGGGAGGGCAUGCUUCUCAAAAAAUGUGAGCUAUUGUCUAAGACUAACAAUAUUUAUCUAGCUAUAAAAAUAAGUUUUAAAUGGACGUUAAGACAACAGAGGAUUGAGCAUCA ... 3.42

Requested read-out: binding signal. Entry: chr1:178670160:178670161:-_ENSMUSG00000057335_ENSMUST00000057037|mus_mus|FALSE|FALSE (ssRNA) RNA: GGGAGUUCUACAGUCCGACGAUCCUGAGGCCUCGAGUCAACAGACCGACCGUUGUUUCCUUCUGGUGUUUUAGAAUGAACUAAUGGAGGUAUCUUUCGGAAGUUGAGACUUUCAUCAAAAACACGAUCAACCAACUCUUCUCUCAACAGAGGAUUGAGCAUCA
1

# repeat for chr16:45382771:45382772:-_ENSMUSG00000022661_ENSMUST00000163230|mus_mus|mus_mus_mus_hu_True|8_48 (ssRNA) RNA: GGGAGUUCUACAGUCCGACGAUCCUGGGUCAUGUUAUAAGACAAAUGGACAGGGAGGGCAUGCUUCUCAAAAAAUGUGAGCUAUUGACUAAGACUAACAAUAUUUAUCUAGCUAUAAAAAUAAGUUUUAAAUGGACGUUAAGACAACAGAGGAUUGAGCAUCA
5.59

Proceed to chr22:38201524:38201525:+_ENSG00000189060_ENST00000340857|hu_hu|FALSE|FALSE (ssRNA) RNA: GGGAGUUCUACAGUCCGACGAUCCGCAGGGGCGGACGUGGAAUUCUCGGUCAUGGUGGCCUGUCUGGUCCGGCUGUUGAAGGCGCCUUCCAAAGGGCCAGCCCUCGUCGGAGGCUGAGCAAAGCCUGCCUCGGGAUCUGCUCCCAACAGAGGAUUGAGCAUCA
0.944

Next binder: chr9:115598534:115598535:+_ENSG00000148158_ENST00000374232|hu_mus|FALSE|FALSE (ssRNA) RNA: GGGAGUUCUACAGUCCGACGAUCCAGCUUAUAGCCUCCGGUGACGUGCUUGACUGACUCACCCACUCUGCUCAGCAAUGCUAUCCCUUGCUUCUUGUAGGCAUUCAGGUCCUUAGCAGUGAGGAACACAUUGAAGUGUUCAUUCAACAGAGGAUUGAGCAUCA
0.557
